# Test Details: Hemolytic activity assay
# Type: cell-based, murine
# Protocol Conditions: mouse, murine red blood cells (mRBCs); 31.3 μg/mL, mRBCs, 37 °C 1 h, ± SDEV
Give measured hemolysis at 1 h, 31.3 μg/mL for each item. Keep answers brief.
Give bare numbers, in %.

These solved cases illustrate the format of a correct answer.
Query Smiles	Result Units	hemolysis at 1 h, 31.3 μg/mL
NC[C@H]1O[C@H](O[C@H]2[C@H](O)[C@@H](O[C@H]3O[C@H](CO)[C@@H](O)[C@H](N)[C@H]3O)[C@H](N)C[C@@H]2N)[C@H](N)C[C@@H]1O	%	15.3
CCCCCCCCCCCCS(=O)(=O)C[C@H]1O[C@H](O[C@@H]2[C@@H](O)[C@H](O[C@H]3O[C@H](CN)[C@@H](O)C[C@H]3N)[C@@H](N)C[C@H]2N)[C@H](O)[C@@H](N)[C@@H]1O	%	24.9

Shifting focus to the molecule that follows.
hemolysis at 1 h, 31.3 μg/mL reading for CCCCCCCCCCCCSC[C@H]1O[C@H](O[C@@H]2[C@@H](O)[C@H](O[C@H]3O[C@H](CN)[C@@H](O)C[C@H]3N)[C@@H](N)C[C@H]2N)[C@H](O)[C@@H](N)[C@@H]1O : 55.5

* * *

# System: Aspergillus nidulans ATCC 38163 (strain L)
# Test Details: MIC, filamentous fungi (CLSI M38-A2), strain L
# Type: cell-based
# Protocol Conditions: MIC-0, strain L, 35 °C 72 h
Give measured MIC for each item. Keep answers brief.
Remember to quote the unit after the number.

These solved cases illustrate the format of a correct answer.
Compound	MIC
CCCCCCCCCCCC(=O)NC[C@H]1O[C@H](O[C@@H]2[C@@H](O)[C@H](O[C@H]3O[C@H](CN)[C@@H](O)C[C@H]3N)[C@@H](N)C[C@H]2N)[C@H](O)[C@@H](N)[C@@H]1O [Compound 9]	3.9 µg/mL
CCCCCCCCCCCCS(=O)(=O)C[C@H]1O[C@H](O[C@@H]2[C@@H](O)[C@H](O[C@H]3O[C@H](CN)[C@@H](O)C[C@H]3N)[C@@H](N)C[C@H]2N)[C@H](O)[C@@H](N)[C@@H]1O [Compound 4]	3.9 µg/mL
CCCCCCCCCCCCc1cn(C[C@H]2O[C@H](O[C@@H]3[C@@H](O)[C@H](O[C@H]4O[C@H](CN)[C@@H](O)C[C@H]4N)[C@@H](N)C[C@H]3N)[C@H](O)[C@@H](N)[C@@H]2O)nn1 [Compound 7b]	1.95 µg/mL
CCCCCCCCCCc1cn(C[C@H]2O[C@H](O[C@@H]3[C@@H](O)[C@H](O[C@H]4O[C@H](CN)[C@@H](O)C[C@H]4N)[C@@H](N)C[C@H]3N)[C@H](O)[C@@H](N)[C@@H]2O)nn1 [Compound 7a]	3.9 µg/mL

Shifting focus to the compound that follows.
MIC reading for CCCCCCCCCCCCSC[C@H]1O[C@H](O[C@@H]2[C@@H](O)[C@H](O[C@H]3O[C@H](CN)[C@@H](O)C[C@H]3N)[C@@H](N)C[C@H]2N)[C@H](O)[C@@H](N)[C@@H]1O [Compound 3] : 3.9 µg/mL

* * *

# Tested on: Candida glabrata clinical isolate CG1
# Test Details: MIC, broth microdilution (CLSI M27-A3), CG1
# Type: cell-based
# Protocol Conditions: Nakaseomyces glabratus; MIC-0, CG1, 35 °C 48 h
Give measured log10 of MIC for each item. Keep answers brief.
Please note: log10 values; quantity MIC; unit µg/mL.

Compound	Result Number
CCCCCCCCCCCC(=O)NC[C@H]1O[C@H](O[C@@H]2[C@@H](O)[C@H](O[C@H]3O[C@H](CN)[C@@H](O)C[C@H]3N)[C@@H](N)C[C@H]2N)[C@H](O)[C@@H](N)[C@@H]1O	1.19
CCCCCCCCCCCCS(=O)(=O)C[C@H]1O[C@H](O[C@@H]2[C@@H](O)[C@H](O[C@H]3O[C@H](CN)[C@@H](O)C[C@H]3N)[C@@H](N)C[C@H]2N)[C@H](O)[C@@H](N)[C@@H]1O	0.89
CCCCCCCCCCc1cn(C[C@H]2O[C@H](O[C@@H]3[C@@H](O)[C@H](O[C@H]4O[C@H](CN)[C@@H](O)C[C@H]4N)[C@@H](N)C[C@H]3N)[C@H](O)[C@@H](N)[C@@H]2O)nn1	1.50
CCCCCCCCCCCCc1cn(C[C@H]2O[C@H](O[C@@H]3[C@@H](O)[C@H](O[C@H]4O[C@H](CN)[C@@H](O)C[C@H]4N)[C@@H](N)C[C@H]3N)[C@H](O)[C@@H](N)[C@@H]2O)nn1	0.59
CCCCCCCCCCCCSC[C@H]1O[C@H](O[C@@H]2[C@@H](O)[C@H](O[C@H]3O[C@H](CN)[C@@H](O)C[C@H]3N)[C@@H](N)C[C@H]2N)[C@H](O)[C@@H](N)[C@@H]1O	1.19

log10 of MIC reading for CC[C@H](C)C[C@H](C)CCCCCCCCC(=O)N[C@H]1C[C@@H](O)[C@@H](NCCN)NC(=O)[C@@H]2[C@@H](O)CCN2C(=O)[C@H]([C@H](O)CCN)NC(=O)[C@H]([C@H](O)[C@@H](O)c2ccc(O)cc2)NC(=O)[C@@H]2C[C@@H](O)CN2C(=O)[C@H]([C@@H](C)O)NC1=O [CAS, caspofungin, reference compound] : 0.29
